Target: recombinant human Muscarinic M1 receptor (Homo sapiens (Human), UniProt P11229)
Sequence (P11229 whole entry): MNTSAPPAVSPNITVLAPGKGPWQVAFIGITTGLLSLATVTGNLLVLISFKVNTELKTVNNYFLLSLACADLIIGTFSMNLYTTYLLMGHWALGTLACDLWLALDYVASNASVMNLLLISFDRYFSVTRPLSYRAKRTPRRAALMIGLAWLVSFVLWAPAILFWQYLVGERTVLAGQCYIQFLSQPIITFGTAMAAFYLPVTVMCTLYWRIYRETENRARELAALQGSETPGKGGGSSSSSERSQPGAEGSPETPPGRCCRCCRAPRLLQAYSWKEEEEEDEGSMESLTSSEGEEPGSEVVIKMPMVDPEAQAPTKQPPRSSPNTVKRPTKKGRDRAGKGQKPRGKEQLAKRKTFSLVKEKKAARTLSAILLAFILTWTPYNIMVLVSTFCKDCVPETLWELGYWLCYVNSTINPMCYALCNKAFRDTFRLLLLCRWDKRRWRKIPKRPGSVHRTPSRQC
Assay: Allosteric potency EC50, CHO cells with pCRE-Luc reporter, in presence of EC20 of acetylcholine
Conditions: 4 hours
readout label: pEC50
Quick note: pEC50 values are minus log10 of concentrations in mol/L.

# example entries with known answers
{"entry smiles": "COc1ccc(CN2C=C(C(=O)N[C@H]3CCCC[C@@H]3O)Oc3ccccc32)cc1", "readout label": "pEC50", "numeric result": 6.87}
{"entry smiles": "COc1cccc(CN2C=C(C(=O)N[C@H]3CCCC[C@@H]3O)Oc3ccccc32)c1", "readout label": "pEC50", "numeric result": 6.16}
{"entry smiles": "O=C(N[C@H]1CCCC[C@@H]1O)C1=CN(Cc2ccccc2F)c2cccc(F)c2O1", "readout label": "pEC50", "numeric result": 6.87}
{"entry smiles": "O=C(N[C@H]1CCCC[C@@H]1O)C1=CN(Cc2ccc(F)c(F)c2)c2ccccc2O1", "readout label": "pEC50", "numeric result": 6.92}
{"entry smiles": "O=C(N[C@H]1CCCC[C@@H]1O)C1=CN(Cc2cccc(F)c2)c2cccnc2O1", "readout label": "pEC50", "numeric result": 5.81}

input: Query: pEC50; subject: `O=C(Nc1ccccc1CO)C1=CN(Cc2ccccc2F)c2cccc(F)c2O1`
output: 5.96

input: Query: pEC50; subject: `O=C(N[C@H]1CCCC[C@@H]1O)C1=CN(Cc2ccc(F)cc2)c2ccccc2O1`
output: 6.04

input: Query: pEC50; subject: `O=C(N[C@H]1CCCC[C@@H]1O)C1=CN(Cc2ccccc2)c2cccc(F)c2O1`
output: 6.84
